Reference for the values: patent US20170355708A1

molecular target: hSK2 channels (Homo sapiens, UniProt P0DP23+Q9H2S1); construct: expressed in transfected cells; host or cells: HEK293; assay: Whole-cell patch-clamp recording of SK2 channel current (SC100); assay type: cell-based; details: Stimulating Concentration required for increasing the baseline current by 100%; HEK293 cells expressing hSK2; Table 3
Value kind: SC100 uM

> print(dat)
                                   compound  value.kind                obs.value
1  CC(=O)NCc1cc(Nc2ccc(F)cc2)nc(-n2cc(C)c(CF)n2)c1    SC100 uM  +++ (+++ means <200 nM)
2  CC(=O)NCc1cc(Nc2ccc(Cl)cc2)nc(-n2ccc(CF)n2)c1    SC100 uM  +++ (+++ means <200 nM)
3  Cc1cc(C)n(-c2nc(Nc3ccc(Cl)cc3)nc3c2ncn3C(C)C)n1    SC100 uM  +++ (+++ means <200 nM)
4  CC(=O)NCc1cc(Nc2ccc(F)cc2)nc(-n2ccc(C(F)F)n2)c1    SC100 uM        + (+ means >1 uM)
5  Fc1ccc(Nc2cc(N3CCOCC3)nc(-n3ccc(C(F)F)n3)n2)cc1    SC100 uM  +++ (+++ means <200 nM)
6  Cc1cc(Nc2ccc(F)cc2)nc(-n2ccc(C(C)(C)O)n2)n1    SC100 uM        + (+ means >1 uM)
7  Cc1cc(C)n(-c2cc(N3CC4(COC4)C3)nc(Nc3ccc(F)cc3F)n2)n1    SC100 uM        + (+ means >1 uM)
8  Cc1cc(C)n(-c2nc(Nc3ccc(F)c(F)c3)cc(N3CCOC(CO)C3)n2)n1 (centres unmarked)    SC100 uM  +++ (+++ means <200 nM)

Provide measured SC100 uM value, entry: `Cc1cc(C)n(-c2cc3ccn(C)c3c(Nc3ccc(Cl)cc3)n2)n1`
+ (+ means >1 uM)

Provide measured SC100 uM value, entry: `Cc1cc(Nc2ccc(F)cc2)nc(-n2ccc(CO)n2)n1`
+ (+ means >1 uM)

Provide measured SC100 uM value, entry: Cc1cc(C)n(-c2cc(N3CCO[C@@H](C(N)=O)C3)nc(Nc3ccc(F)c(F)c3)n2)n1 (single isomer, unassigned)
+++ (+++ means <200 nM)
